Hello, the source for this data is patent US7807678B2, in case you need it.

- TARGET DESC: MC1-R (B-16 mouse melanoma cells) (Mus musculus, UniProt Q01727)
- Construct: B-16 mouse melanoma cells (containing MC1-R); endogenous in cells; host or cells: B-16 mouse melanoma cells
- Sequence (Q01727 whole entry): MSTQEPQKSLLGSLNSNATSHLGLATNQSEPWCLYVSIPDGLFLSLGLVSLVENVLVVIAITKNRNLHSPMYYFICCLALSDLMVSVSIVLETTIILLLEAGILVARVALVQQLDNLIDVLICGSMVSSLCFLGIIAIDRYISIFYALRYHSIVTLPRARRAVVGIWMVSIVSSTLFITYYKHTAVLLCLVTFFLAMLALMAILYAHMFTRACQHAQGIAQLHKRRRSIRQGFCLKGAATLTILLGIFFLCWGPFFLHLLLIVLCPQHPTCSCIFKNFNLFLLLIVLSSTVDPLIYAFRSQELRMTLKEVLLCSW
- TEST: Competitive inhibition binding assay, 125I-NDP-α-MSH, MC1-R
- MEASUREMENT CONTEXT: 1 μM compound; inhibition of 125I-NDP-α-MSH binding; mean of triplicates; results less than 0% reported as 0%
PARAMETER MEASURED: Inhibition at 1 μM MC1-R

Known results for compounds:
• NCCCNC(=O)[C@@H]1C[C@@H](OCc2ccccc2)CN1C(=O)[C@@H](Cc1ccccc1)NC(=O)C1(N)Cc2ccccc2C1 [Example 163] = 0%
• N=C(N)NCCC[C@H]1C(=O)N(CCc2c[nH]c3ccccc23)CCN1C(=O)[C@@H](Cc1ccccc1Cl)NC(=O)[C@@H]1C[C@@H](OCc2ccccc2)CN1 [Example 19] = 91%
• NCCCNC(=O)[C@@H]1C[C@@H](OCc2ccccc2)CN1C(=O)[C@@H](Cc1ccccc1)NC(=O)[C@@H]1Cc2ccccc2N1 [Example 172] = 14%
• NCCCC[C@H]1C(=O)N(CCc2ccc3ccccc3c2)CCN1C(=O)[C@@H](Cc1ccc(Cl)cc1Cl)NCc1ccc2ccccc2c1 [Example 41] = 4%

Request the reported Inhibition at 1 μM MC1-R associated with N=C(N)NCCC[C@H]1C(=O)N(CCc2ccc3ccccc3c2)CCN1C(=O)[C@H](N)Cc1ccccc1Cl [Example 122]
3%

Look up Inhibition at 1 μM MC1-R: NCCCNC(=O)[C@@H]1C[C@@H](OCc2ccccc2)CN1C(=O)[C@@H](Cc1ccccc1)NC(=O)C1(N)CCCC1 [Example 161]
3%
